# Target: Cannabinoid receptor 2 (Homo sapiens, UniProt P34972)
# Sequence (P34972 whole entry): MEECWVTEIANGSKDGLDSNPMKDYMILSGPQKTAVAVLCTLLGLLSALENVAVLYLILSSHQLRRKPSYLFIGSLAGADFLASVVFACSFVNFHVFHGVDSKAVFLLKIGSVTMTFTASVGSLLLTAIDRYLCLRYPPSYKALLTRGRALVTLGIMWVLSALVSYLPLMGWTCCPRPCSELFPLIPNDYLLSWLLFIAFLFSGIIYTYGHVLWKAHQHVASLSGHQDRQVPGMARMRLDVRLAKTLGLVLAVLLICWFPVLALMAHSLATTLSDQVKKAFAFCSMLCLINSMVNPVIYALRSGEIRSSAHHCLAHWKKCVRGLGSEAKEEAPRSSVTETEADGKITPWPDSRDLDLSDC
# Experiment notes: Antagonist activity at human Gi/o-coupled CNR2 expressed in CHOK1 cells assessed as inhibition in CP55940-induced beta-arrestin 2 recruitment at 20 uM incubated for 30 mins followed by CP55940 addition and measured after 90 or 180 mins by pathhunter beta-arrestin assay relative to control
# Format: cell-based
Observation type: inhibition

>  <Smiles>
CC[C@@]1(CC(=O)NC2CCCC2)CCCN2CCc3c([nH]c4ccccc34)[C@@H]21

>  <Target>
Cannabinoid receptor 2 (Homo sapiens, UniProt P34972)

>  <Measured>
17%

$$$$
>  <Smiles>
CC[C@]12CCCN3CCc4c(n(c5ccccc45)[C@@](O)(C(=O)OC)C1)[C@@H]32

>  <Target>
Cannabinoid receptor 2 (Homo sapiens, UniProt P34972)

>  <Measured>
11%

$$$$
>  <Smiles>
CC[C@@]12C=C(C(=O)OC)n3c(c(c4ccccc43)CCN(/C=C/C(=O)OC)CCC1)[C@@H]2c1ccc(O)cc1

>  <Target>
Cannabinoid receptor 2 (Homo sapiens, UniProt P34972)

>  <Measured>
39%

$$$$
>  <Smiles>
CC[C@@]12CCCN3CCc4c([nH]c5ccccc45)[C@]31N(Cc1cn(Cc3ccccc3)nn1)C(=O)C2

>  <Target>
Cannabinoid receptor 2 (Homo sapiens, UniProt P34972)

>  <Measured>
60%

$$$$
>  <Smiles>
COC(=O)[C@@H]1[C@H]2C[C@H]3c4[nH]c5ccccc5c4CCN3C[C@@H]2CC[C@@H]1O

>  <Target>
Cannabinoid receptor 2 (Homo sapiens, UniProt P34972)

>  <Measured>
20%

$$$$
>  <Smiles>
CC[C@@]1(CC(=O)OC)CCCN2CC[C@]3(O)C(=Nc4ccccc43)[C@@H]21

>  <Target>
Cannabinoid receptor 2 (Homo sapiens, UniProt P34972)

>  <Measured>
2%

$$$$
>  <Smiles>
CC[C@]12CCCN3CC[C@]4(C(=O)c5ccccc5N4C(=O)C1)[C@@H]32

>  <Target>
Cannabinoid receptor 2 (Homo sapiens, UniProt P34972)

>  <Measured>
13%

$$$$

----------
# Target: Histamine H1 receptor (Homo sapiens) (UniProt P35367)
# Sequence (P35367 whole entry): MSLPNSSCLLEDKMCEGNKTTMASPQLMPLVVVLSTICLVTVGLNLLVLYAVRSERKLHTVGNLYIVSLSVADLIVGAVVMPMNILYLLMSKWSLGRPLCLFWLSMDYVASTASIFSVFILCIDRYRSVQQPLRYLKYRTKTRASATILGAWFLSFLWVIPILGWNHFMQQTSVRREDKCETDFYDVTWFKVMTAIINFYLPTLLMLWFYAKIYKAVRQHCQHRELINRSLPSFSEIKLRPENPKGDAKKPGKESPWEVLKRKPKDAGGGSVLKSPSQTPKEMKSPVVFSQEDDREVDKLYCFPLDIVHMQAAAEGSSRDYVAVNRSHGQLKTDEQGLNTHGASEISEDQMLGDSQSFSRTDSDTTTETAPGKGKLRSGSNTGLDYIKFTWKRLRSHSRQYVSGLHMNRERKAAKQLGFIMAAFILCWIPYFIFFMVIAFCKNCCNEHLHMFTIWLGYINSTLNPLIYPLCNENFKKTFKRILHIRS
# Condition notes: at 20 µM
# Description: Antagonist activity at human Gq-coupled HRH1 expressed in CHOK1 cells assessed as inhibition in histamine-induced beta-arrestin 2 recruitment at 20 uM incubated for 30 mins followed by histamine addition and measured after 90 or 180 mins by pathhunter beta-arrestin assay relative to control
Observation type: inhibition (%)

>  <Smiles>
CC[C@]12CCCN3CC[C@]4(C(=O)c5ccccc5N4C(=O)C1)[C@@H]32

>  <Measured>
-3

$$$$
>  <Smiles>
CC[C@@]1(CC(=O)OC)CCCN2CC[C@]3(O)C(=Nc4ccccc43)[C@@H]21

>  <Measured>
8

$$$$
>  <Smiles>
CC[C@@]12C=C(C(=O)OC)n3c(c(c4ccccc43)CCN(/C=C/C(=O)OC)CCC1)[C@@H]2c1ccc(O)cc1

>  <Measured>
16

$$$$
>  <Smiles>
CC[C@@]1(CC(=O)NC2CCCC2)CCCN2CCc3c([nH]c4ccccc34)[C@@H]21

>  <Measured>
21

$$$$
>  <Smiles>
CC[C@@]12CCCN3CCc4c([nH]c5ccccc45)[C@]31N(Cc1cn(Cc3ccccc3)nn1)C(=O)C2

>  <Measured>
17

$$$$
>  <Smiles>
CC[C@]12CCCN3CCc4c(n(c5ccccc45)[C@@](O)(C(=O)OC)C1)[C@@H]32

>  <Measured>
5

$$$$
